All values here come from paper PMC8732799.

# assayed_target: CYP2C8 (Homo sapiens, UniProt P10632)
# Sequence (P10632 whole entry): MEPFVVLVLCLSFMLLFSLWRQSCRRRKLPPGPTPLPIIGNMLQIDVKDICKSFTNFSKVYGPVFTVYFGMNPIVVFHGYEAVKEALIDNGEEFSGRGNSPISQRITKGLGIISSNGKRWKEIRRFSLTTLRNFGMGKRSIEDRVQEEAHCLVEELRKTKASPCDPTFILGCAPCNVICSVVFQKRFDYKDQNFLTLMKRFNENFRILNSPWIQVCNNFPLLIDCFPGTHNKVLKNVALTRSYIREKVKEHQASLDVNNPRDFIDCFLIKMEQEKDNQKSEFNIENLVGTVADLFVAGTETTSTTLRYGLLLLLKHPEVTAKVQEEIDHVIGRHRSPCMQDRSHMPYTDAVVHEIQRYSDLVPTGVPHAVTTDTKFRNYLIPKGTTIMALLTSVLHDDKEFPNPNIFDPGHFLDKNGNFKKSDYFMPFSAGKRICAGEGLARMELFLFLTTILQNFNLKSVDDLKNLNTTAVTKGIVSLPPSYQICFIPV
# experimental_details: Inhibition of paclitaxel metabolism in human liver microsome fraction: 6α-hydroxypaclitaxel production
# conditions: human, human liver microsomes, pH 7.4, probe paclitaxel (6α-hydroxypaclitaxel formation)
measurement_kind: activity at 140 min, 3 µM (%)
Give bare numbers, in %.

## Input Entry O=c1c(O)c(-c2ccc(O)c(O)c2)oc2cc(O)cc(O)c12 [quercetin] has what activity at 140 min, 3 µM?
## Output 29
